# IC50 against TGFBR2 (Homo sapiens, UniProt P37173), merged from multiple literature sources

{"columns": ["COMPOUND", "SYSTEM", "IC50"],
 "data": [
  ["C[C@H]1CN(c2ccncc2NC(=O)c2nc(-c3ccc(CCNC(=O)OCc4ccccc4)cc3)cnc2N)CCO1", "TGFBR2 (Homo sapiens, UniProt P37173)", "0.1 to 1 µM"],
  ["NCCc1ccc(-c2cnc(N)c(C(=O)Nc3c(N4CCOCC4)ccnc3N)n2)cc1", "TGFBR2 (Homo sapiens, UniProt P37173)", "> 1 µM"],
  ["NC(=O)c1cnc2ccc(-c3cccnc3-c3cccc(C(F)F)n3)cn12", "TGFBR2 (Homo sapiens, UniProt P37173)", "> 15 µM"],
  ["N#Cc1cnc2ccc(-c3cccnc3-c3cc(F)ccn3)cn12", "TGFBR2 (Homo sapiens, UniProt P37173)", "> 15 µM"],
  ["Nc1ncc(-c2ccc(CCNC(=O)OCc3ccccc3)cc2)nc1C(=O)Nc1cnccc1-c1ccc(O)cc1", "TGFBR2 (Homo sapiens, UniProt P37173)", "0.1 to 1 µM"],
  ["Nc1ncc(-c2ccc(CCNC(=O)OCc3ccccc3)cc2)nc1C(=O)Nc1cnccc1-c1ccnc2ccccc12", "TGFBR2 (Homo sapiens, UniProt P37173)", "> 1 µM"],
  ["Nc1ncc(-c2ccc(OCC[C@@H](N)C(=O)O)cc2)nc1C(=O)Nc1cnccc1N1CCOCC1", "TGFBR2 (Homo sapiens, UniProt P37173)", "0.05 to 0.1 µM"],
  ["CC(=O)Nc1cc(Nc2nc(-c3cccc(C(F)(F)F)n3)nc3[nH]cnc23)ccn1", "TGFBR2 (Homo sapiens, UniProt P37173)", "1.3 µM"],
  ["Cc1cnccc1-c1ccncc1NC(=O)c1nc(-c2ccc(CCNC(=O)OCc3ccccc3)cc2)cnc1N", "TGFBR2 (Homo sapiens, UniProt P37173)", "0.1 to 1 µM"],
  ["Cc1cc(-c2ccncc2NC(=O)c2nc(-c3ccc(CCNC(=O)OCc4ccccc4)cc3)cnc2N)ccn1", "TGFBR2 (Homo sapiens, UniProt P37173)", "0.1 to 1 µM"],
  ["COc1cccc(-c2cnc(N)c(C(=O)Nc3cnccc3N3CCOCC3)n2)c1", "TGFBR2 (Homo sapiens, UniProt P37173)", "< 0.05 µM"],
  ["O=C(O)c1cnn2ccc(-c3cccnc3-c3cccc(C(F)F)n3)nc12", "TGFBR2 (Homo sapiens, UniProt P37173)", "> 15 µM"],
  ["N#Cc1cnn2ccc(-c3cccnc3-c3cccc(C(F)(F)F)n3)nc12", "TGFBR2 (Homo sapiens, UniProt P37173)", "> 15 µM"],
  ["Cc1nc(-c2ncccc2-c2ccc3ncc(C#N)n3c2)ccc1F", "TGFBR2 (Homo sapiens, UniProt P37173)", "> 15 µM"],
  ["Nc1ncc(-c2ccc(CCNC(=O)OCc3ccccc3)cc2)nc1C(=O)Nc1cnccc1-c1ccnc(Cl)c1", "TGFBR2 (Homo sapiens, UniProt P37173)", "> 1 µM"],
  ["Nc1ncc(-c2ccc(N3CCNCC3)cc2)nc1C(=O)Nc1cnccc1N1CCOCC1", "TGFBR2 (Homo sapiens, UniProt P37173)", "< 0.05 µM"],
  ["FC(F)(F)c1cccc(-c2ncccc2-c2ccn3nccc3n2)n1", "TGFBR2 (Homo sapiens, UniProt P37173)", "> 15 µM"],
  ["N#Cc1cnc2ccc(-c3cccnc3-c3cccc(OCc4ccccc4)n3)cn12", "TGFBR2 (Homo sapiens, UniProt P37173)", "> 15 µM"],
  ["CC(CN)Oc1ccc(-c2cnc(N)c(C(=O)Nc3cnccc3N3CCOCC3)n2)cc1 (centres unmarked)", "TGFBR2 (Homo sapiens, UniProt P37173)", "< 0.05 µM"],
  ["CNCCc1ccc(-c2cnc(N)c(C(=O)Nc3cnccc3N3CCOCC3)n2)cc1", "TGFBR2 (Homo sapiens, UniProt P37173)", "0.1 to 1 µM"],
  ["Nc1ncc(-c2ccc(CCNC(=O)OCc3ccccc3)cc2)nc1C(=O)Nc1cnccc1N1CCOCC1", "TGFBR2 (Homo sapiens, UniProt P37173)", "< 0.05 µM"],
  ["CC(=O)Nc1cnc(-c2cccc(C)n2)c(-c2ccc3ncc(C#N)n3c2)c1", "TGFBR2 (Homo sapiens, UniProt P37173)", "> 15 µM"],
  ["Nc1ncc(-c2ccc(C[C@H](N)CO)cc2)nc1C(=O)Nc1cnccc1N1CCOCC1", "TGFBR2 (Homo sapiens, UniProt P37173)", "< 0.05 µM"],
  ["Nc1ncc(-c2ccc(OC3CNC3)cc2)nc1C(=O)Nc1cnccc1N1CCOCC1", "TGFBR2 (Homo sapiens, UniProt P37173)", "< 0.05 µM"],
  ["NCCCOc1ccc(-c2cnc(N)c(C(=O)Nc3cnccc3N3CCOCC3)n2)cc1", "TGFBR2 (Homo sapiens, UniProt P37173)", "< 0.05 µM"],
  ["CC(C)(C)OC(=O)NC1CCN(c2cnc(N)c(C(=O)Nc3cnccc3N3CCOCC3)n2)CC1", "TGFBR2 (Homo sapiens, UniProt P37173)", "> 1 µM"],
  ["COC(=O)[C@@H](N)Cc1ccc(-c2cnc(N)c(C(=O)Nc3cnccc3N3CCOCC3)n2)cc1", "TGFBR2 (Homo sapiens, UniProt P37173)", "< 0.05 µM"],
  ["COCCCN(C)c1ccncc1NC(=O)c1nc(-c2ccc(CCN)cc2)cnc1N", "TGFBR2 (Homo sapiens, UniProt P37173)", "< 0.05 µM"],
  ["Nc1ncc(-c2ccc(CCCCNC(=O)OCc3ccccc3)cc2)nc1C(=O)Nc1cnccc1N1CCOCC1", "TGFBR2 (Homo sapiens, UniProt P37173)", "0.05 to 0.1 µM"],
  ["O=C(O)c1cnn2ccc(-c3cccnc3-c3cccc(C(F)(F)F)n3)nc12", "TGFBR2 (Homo sapiens, UniProt P37173)", "> 15 µM"],
  ["CN(CC#N)c1ccncc1NC(=O)c1nc(-c2ccc(CCNC(=O)OCc3ccccc3)cc2)cnc1N", "TGFBR2 (Homo sapiens, UniProt P37173)", "> 1 µM"],
  ["Cc1cccc(-c2ncccc2-c2ccc3ncc(C(=O)NC4COC4)n3n2)n1", "TGFBR2 (Homo sapiens, UniProt P37173)", "> 15 µM"]
]}
